Each record here notes measured IC50.
# Tested on: MS751 cells
# experiment.notes: MTT cell proliferation assay, MS751
# Type: cell-based, human
# protocol.conditions: Homo sapiens, MS751, MS751 cells; eight concentrations 1 nM to 30 μM; incubation approximately 64-72 hours; read-out: MTT Assay IC50, MS751

# compound, IC50
measured = [
    ("CN(C)c1ccc(-c2cc(Cl)c3c(c2)CC(CNC(=O)/C=C/c2cccnc2)O3)cc1 (stereo not drawn) [Compound 64]", "0.1 to 5 µM"),
    ("CC(=O)c1ccc(-c2cc(Cl)c3c(c2)CC(CNC(=O)/C=C/c2c(C)nn(C)c2Cl)O3)s1 (stereo not drawn) [Compound 160]", "> 30 µM"),
    ("CC(=O)c1ccc(-c2cc(Cl)c3c(c2)CC(CNC(=O)/C=C/c2ccnnc2)O3)s1 (stereo not drawn) [Compound 273]", "> 30 µM"),
    ("CC(=O)c1ccc(-c2cc(Cl)c3c(c2)CC(CNC(=O)/C=C/c2ccccn2)O3)s1 (stereo not drawn) [Compound 103]", "> 30 µM"),
    ("CCn1cc(/C=C/C(=O)NCC2Cc3cc(-c4ccc(C(C)=O)s4)cc(Cl)c3O2)cn1 (stereo not drawn) [Compound 155]", "> 30 µM"),
    ("CCOC(=O)c1ccc(-c2cc(Cl)c3c(c2)CC(CNC(=O)/C=C/c2cccnc2)O3)cc1 (stereo not drawn) [Compound 128]", "0.1 to 5 µM"),
    ("CC(=O)c1ccc(-c2cc(Cl)c3c(c2)CC(CNC(=O)/C=C/c2cncnc2)O3)s1 (stereo not drawn) [Compound 254]", "> 30 µM"),
    ("CC(=O)c1ccc(-c2cc(Cl)c3c(c2)CC(CNC(=O)/C=C/c2c(C)nn(CC(C)C)c2Cl)O3)s1 (stereo not drawn) [Compound 154]", "> 30 µM"),
    ("CC(=O)c1ccc(-c2cc(Cl)c3c(c2)CC(CNC(=O)/C=C/c2cnccc2N)O3)s1 (stereo not drawn) [Compound 108]", "0.1 to 5 µM"),
    ("CCc1nc(C)c(/C=C/C(=O)NCC2Cc3cc(-c4ccc(C(C)=O)s4)cc(Cl)c3O2)[nH]1 (stereo not drawn) [Compound 177]", "0.1 to 5 µM"),
    ("CC(=O)c1ccc(-c2cc(Cl)c3c(c2)CC(CNC(=O)/C=C/c2cnn(C)c2C)O3)s1 (stereo not drawn) [Compound 157]", "> 30 µM"),
    ("CCOC(=O)c1cccc(-c2cc(Cl)c3c(c2)CC(CNC(=O)/C=C/c2cccnc2)O3)c1 (stereo not drawn) [Compound 52]", "0.1 to 5 µM"),
    ("O=C(/C=C/c1cccnc1)NCC1Cc2cc(-c3ccc(C(=O)N4CCOCC4)cc3)cc(Cl)c2O1 (stereo not drawn) [Compound 29]", "< 0.1 µM"),
    ("CC(=O)c1ccc(-c2cc(Cl)c3c(c2)CC(CNC(=O)/C=C/c2cccnc2)O3)s1 (single isomer, unassigned) [Compound 123]", "< 0.1 µM"),
    ("CC(=O)c1ccc(-c2cc(C)c3c(c2)CC(CNC(=O)/C=C/c2cccnc2)O3)s1 (stereo not drawn) [Compound 138]", "< 0.1 µM"),
    ("CC(=O)c1ccc(-c2cc(Cl)c3c(c2)CC(CNC(=O)/C=C/c2ccc(C)nc2)O3)s1 (stereo not drawn) [Compound 146]", "5 to 30 µM"),
    ("CS(=O)(=O)c1cncc(-c2cc(Cl)c3c(c2)CC(CNC(=O)/C=C/c2cccnc2)O3)c1 (stereo not drawn) [Compound 77]", "0.1 to 5 µM"),
    ("CC(=O)c1ccc(-c2cc(Cl)c3c(c2)CC(CN(C)C(=O)/C=C/c2cccnc2)O3)s1 (stereo not drawn) [Compound 125]", "5 to 30 µM"),
    ("CC(=O)c1ccc(-c2cc(Cl)c3c(c2)CC(CNC(=O)/C=C/c2cnc(C)s2)O3)s1 (stereo not drawn) [Compound 148]", "5 to 30 µM"),
    ("CC(=O)c1ccc(-c2cc(Cl)c3c(c2)CC(CNC(=O)/C=C/c2cccnn2)O3)s1 (stereo not drawn) [Compound 279]", "0.1 to 5 µM"),
    ("CC(=O)c1ccc(-c2cc(Cl)c3c(c2)CC(CNC(=O)/C=C/c2ccncc2)O3)s1 (stereo not drawn) [Compound 24]", "> 30 µM"),
    ("O=C(/C=C/c1cccnc1)NCC1Cc2cccc(Cl)c2O1 (stereo not drawn) [Compound 83]", "5 to 30 µM"),
    ("O=C(/C=C/c1cccnc1)NCC1Cc2cc(-c3cc(F)c(F)c(F)c3)cc(Cl)c2O1 (stereo not drawn) [Compound 21]", "0.1 to 5 µM"),
    ("O=C(/C=C/c1cccnc1)NCC1Cc2cc(-c3cc(C(F)(F)F)cc(C(F)(F)F)c3)cc(Cl)c2O1 (stereo not drawn) [Compound 49]", "0.1 to 5 µM"),
    ("CC(OC(=O)CCCC[C@@H]1SC[C@@H]2NC(=O)N[C@@H]21)c1ccc(-c2cc(Cl)c3c(c2)CC(CNC(=O)/C=C/c2cccnc2)O3)s1 (stereo partly drawn) [Compound 162]", "< 0.1 µM"),
    ("CC(=O)c1ccc(-c2cc(Cl)c3c(c2)CC(CNC(=O)/C=C/c2ncc[nH]2)O3)s1 (stereo not drawn) [Compound 278]", "> 30 µM"),
    ("CC(=O)c1ccc(-c2cc(Cl)c3c(c2)CC(CNC(=O)/C=C/c2cccnc2N)O3)s1 (stereo not drawn) [Compound 106]", "5 to 30 µM"),
    ("O=C(/C=C/c1cccnc1)NCC1Cc2cc(-c3ccccc3)cc(Cl)c2O1 (stereo not drawn) [Compound 67]", "0.1 to 5 µM"),
    ("CC(=O)c1ccc(-c2cc(Cl)c3c(c2)CC(CNC(=O)/C=C/c2cc[nH]c2)O3)s1 (stereo not drawn) [Compound 153]", "> 30 µM"),
    ("CC(=O)c1ccc(-c2cc(Cl)c3c(c2)CC(CNC(=O)/C=C/c2c(C)nc4sc(C)cn24)O3)s1 (stereo not drawn) [Compound 161]", "> 30 µM"),
]

###

# Tested on: 3T3 cells
# experiment.notes: MTT cell proliferation assay, 3T3
# Format: cell-based, mouse
# protocol.conditions: Mus musculus, NIH3T3, 3T3 cells, approximately 64-72 hours incubation; read-out: MTT Assay IC50, 3T3

# compound, assayed.system, IC50
measured = [
    ("CC(=O)c1ccc(-c2cc(Cl)c3c(c2)CC(CNC(=O)/C=C/c2nccn2-c2ccccc2)O3)s1 (centres unmarked)", "3T3 cells", "5 to 30 µM"),
    ("CCOC(=O)CCOCCOCCC(=O)N1CCN(C(=O)c2ccc(-c3cc(Cl)c4c(c3)CC(CNC(=O)/C=C/c3ccc(N)nc3)O4)cc2)CC1 (centres unmarked)", "3T3 cells", "< 0.1 µM"),
    ("Nc1ccc(/C=C/C(=O)NCC2Cc3cc(-c4ccc(C(=O)N5CCCCC5)cn4)cc(Cl)c3O2)cn1 (centres unmarked)", "3T3 cells", "5 to 30 µM"),
    ("CC1(C)COCCN1C(=O)c1ccc(-c2cc(Cl)c3c(c2)CC(/C=C/C(=O)NCc2ccc(N)nc2)O3)cc1 (centres unmarked)", "3T3 cells", "0.1 to 5 µM"),
    ("CC(=O)c1ccc(-c2cc(Cl)c3c(c2)CC(CNC(=O)/C=C\\c2cccnc2)O3)s1 (centres unmarked)", "3T3 cells", "> 30 µM"),
    ("Nc1ccc(CNC(=O)/C=C/C2Cc3cc(-c4ccc(S(=O)(=O)N5CC(F)(F)C5)cc4)cc(Cl)c3O2)cn1 (centres unmarked)", "3T3 cells", "5 to 30 µM"),
    ("CC(=O)c1ccc(-c2cc(Cl)c3c(c2)CC(CNC(=O)/C=C/c2cnc(C(C)(C)C)s2)O3)s1 (centres unmarked)", "3T3 cells", "> 30 µM"),
    ("Nc1ccc(/C=C/C(=O)NCC2Cc3c(-c4cncc(C(=O)N5CCOCC5)c4)ccc(Cl)c3O2)cn1 (centres unmarked)", "3T3 cells", "5 to 30 µM"),
    ("Nc1ccc(/C=C/C(=O)NCC2Cc3c(-c4ccccc4C(=O)N4CC(F)(F)C4)ccc(Cl)c3O2)cn1 (centres unmarked)", "3T3 cells", "< 0.1 µM"),
    ("Nc1ccc(/C=C/C(=O)NCC2Cc3cc(-c4ccc(S(=O)(=O)N5CCOCC5)cc4)cc(Cl)c3O2)cn1 (centres unmarked)", "3T3 cells", "0.1 to 5 µM"),
    ("Nc1ccc(/C=C/C(=O)NCC2Cc3cc(-c4cc(F)c(C(=O)N5CCOCC5)cc4F)cc(Cl)c3O2)cn1 (centres unmarked)", "3T3 cells", "0.1 to 5 µM"),
    ("CC(O)c1ccc(-c2cc(Cl)c3c(c2)CC(CNC(=O)/C=C/c2cccnn2)O3)s1 (centres unmarked)", "3T3 cells", "0.1 to 5 µM"),
    ("CC(=O)c1ccc(-c2cc(Cl)c3c(c2)CC(CNC(=O)/C(C#N)=C/c2cccnc2)O3)s1 (centres unmarked)", "3T3 cells", "> 30 µM"),
    ("CC1(F)CN(C(=O)c2ccc(-c3cc(Cl)c4c(c3)CC(/C=C/C(=O)NCc3ccc(N)nc3)O4)cc2)C1 (centres unmarked)", "3T3 cells", "0.1 to 5 µM"),
]
